- Experiment: Displacement of [3H]DTG from sigma2 receptor in guinea pig brain membrane after 120 mins by scintillation counting analysis
- Assay type: cell membranes, Cavia porcellus
pKi: −log10 of the molar value.
Measurement label: pKi

A = COc1ccccc1CCN1CCN(CCCc2ccccc2)CC1
B = COc1ccc(CCN2CCN(CCCc3ccccc3)CC2)cc1
Ask: Select the item whose pKi value is smaller, choosing between A and B . Indicate which entry you chose by stating its label.
Result: B
(B: 7.54, A: 8.12)

1 = COc1cc(CCN2CCN(CCCc3ccccc3)CC2)ccc1OCCBr
2 = COc1cc(CCN2CCN(CCCc3ccccc3)CC2)ccc1OCCF
Ask: Higher pKi: 1 or 2 ? Indicate which entry you chose by stating its label.
Result: 1

A = c1ccc(CCCN2CCN(CCc3ccc4c(c3)OCO4)CC2)cc1
B = COc1cc(CCN2CCN(CCCc3ccccc3)CC2)ccc1O
Ask: Select the item whose pKi value is smaller, choosing between A and B . Indicate which entry you chose by stating its label.
Result: A
(A: 7.83, B: 8.17)

* * *

- Experiment: Selectivity ratio of Ki for mouse DAT to Ki for guinea pig brain sigma1 receptor
Measurement label: Ratio Ki

A = COc1ccc(CCN2CCN(CCCc3ccccc3)CC2)cc1
B = COc1cc(CCN2CCN(CCCc3ccccc3)CC2)ccc1OC/C=C\I
Ask: Select the item whose Ratio Ki value is smaller, choosing between A and B . Indicate which entry you chose by stating its label.
Result: B
(B: 22, A: 1130)

* * *

- Subject of test: Sodium-dependent dopamine transporter (Mus musculus) (UniProt Q61327)
- Sequence (Q61327 whole entry): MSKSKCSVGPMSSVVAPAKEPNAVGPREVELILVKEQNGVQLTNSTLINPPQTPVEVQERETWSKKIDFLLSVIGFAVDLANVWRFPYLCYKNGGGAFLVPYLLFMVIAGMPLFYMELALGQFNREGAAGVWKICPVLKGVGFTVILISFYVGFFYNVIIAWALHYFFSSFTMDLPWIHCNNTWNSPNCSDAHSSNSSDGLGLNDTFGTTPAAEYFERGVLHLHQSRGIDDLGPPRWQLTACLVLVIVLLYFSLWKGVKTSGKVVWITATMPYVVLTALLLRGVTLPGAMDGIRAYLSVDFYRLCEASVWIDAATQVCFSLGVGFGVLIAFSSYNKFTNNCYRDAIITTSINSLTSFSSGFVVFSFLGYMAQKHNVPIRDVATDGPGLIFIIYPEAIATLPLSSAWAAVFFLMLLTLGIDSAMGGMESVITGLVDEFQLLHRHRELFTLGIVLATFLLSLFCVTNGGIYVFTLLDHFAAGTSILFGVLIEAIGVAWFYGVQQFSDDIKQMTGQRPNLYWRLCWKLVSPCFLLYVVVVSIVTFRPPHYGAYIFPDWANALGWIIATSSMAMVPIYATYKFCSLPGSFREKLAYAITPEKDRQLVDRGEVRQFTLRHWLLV
- Experiment: […] from mouse DAT in striatal membranes at 10000 nM
- Assay type: cell membranes
- Setup conditions: Striatum, Membrane
Measurement label: Inhibition % (%)

Some molecules with recorded Inhibition %:
Sample smiles: COc1cc(CCN2CCN(CCCc3ccccc3)CC2)ccc1OCCCc1ccccc1
Inhibition % / %: 97
--
Sample smiles: c1ccc(CCCN2CCN(CCc3ccc4c(c3)OCCCO4)CC2)cc1
Inhibition % / %: 43
--
Sample smiles: C=CCOc1ccc(CCN2CCN(CCCc3ccccc3)CC2)cc1OC
Inhibition % / %: 44
--
Sample smiles: c1ccc(CCCN2CCN(CCc3ccc4c(c3)OCO4)CC2)cc1
Inhibition % / %: 42
--
Sample smiles: COc1cc(CCN2CCN(CCCc3ccccc3)CC2)ccc1OCc1ccccc1
Inhibition % / %: 93

a = COc1cc(CCN2CCN(CCCc3ccccc3)CC2)ccc1OC/C=C\I
b = COc1cc(CCN2CCN(CCCc3ccccc3)CC2)ccc1OCCBr
Ask: Select the item whose Inhibition % value is smaller, choosing between a and b . Indicate which entry you chose by stating its label.
Result: b

* * *

- Subject of test: Sodium-dependent dopamine transporter (Mus musculus) (UniProt Q61327)
- Experiment: […] from mouse DAT in striatal membranes at 10000 nM
- Format: cell membranes
- Setup conditions: Striatum, Membrane
Measurement label: Inhibition % (%)

Some compounds with recorded Inhibition %:
Sample smiles: CCCOc1ccc(CCN2CCN(CCCc3ccccc3)CC2)cc1OC
U: %
Inhibition %: 43

Sample smiles: COc1cc(CCN2CCN(CCCc3ccccc3)CC2)ccc1OCCF
U: %
Inhibition %: 23

Sample smiles: COc1cc(CCN2CCN(CCCc3ccccc3)CC2)ccc1OCCc1ccccc1
U: %
Inhibition %: 89

Sample smiles: COc1cc(CCN2CCN(CCCc3ccccc3)CC2)ccc1OCF
U: %
Inhibition %: 19

I = c1ccc(CCCN2CCN(CCc3ccc4c(c3)OCCO4)CC2)cc1
II = COc1cc(CCN2CCN(CCCc3ccccc3)CC2)ccc1OC/C=C/I
Ask: Select the item whose Inhibition % value is smaller, choosing between I and II . Indicate which entry you chose by stating its label.
Result: I
